Some binders, each annotated with its measured SPOT intensity.
# Measured On: Rvs167, P39743
# Sequence (P39743 419-482): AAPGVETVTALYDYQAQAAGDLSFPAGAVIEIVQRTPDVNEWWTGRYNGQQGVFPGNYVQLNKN
# Protocol Description: SPOT array
# Measurement Parameters: median of control spots 2707
Readout Type: SPOT intensity

SKAKRPKFLLDLQIK = 0
QPWTDQFEKLEKEVS = 0
KKEKKPPKIPKKVYT = 0
